experiment: chemical genetic growth profiling, strain panel (AID 1159580);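 further: tested at 20 µM; growth read once vehicle control cultures reached saturation at 30 °C; 1 = growth at the plate median or of vehicle wells; lower values mean less growth of the strain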; settings: S. cerevisiae deletion strains, growth OD, locus YJL134W, strain LCB3
In all, about 5,500 compounds went through this assay and about 2,000 (36%) were called active. Another 18% or so got no clear call; they are omitted. No stated cut-off is given here; in the data, active means normalized growth mostly below about 0.91 (no sharp cut-off); inconclusive means no clear call, values can overlap the other calls; inactive means mostly above about 0.92. This is one part of the list.
Classes used: 1 (yes) (active), 0 (no) (inactive)

COMPOUND: CC(=O)Oc1ccc2c(c1)CCC1C2CC[C@@]2(C)C1CC[C@@H]2OC(C)=O (stereo not given in full)
ASSIGNED CLASS: 0 (no)

COMPOUND: Cn1cnc([N+](=O)[O-])c1Sc1ncnc2nc[nH]c12
ASSIGNED CLASS: 0 (no)

COMPOUND: CCCCC(=O)O[C@H]1CCC2C3CCc4cc(O)ccc4C3CC[C@@]21C (stereo not given in full)
ASSIGNED CLASS: 0 (no)

COMPOUND: COP(=S)(OC)SCn1nnc2ccccc2c1=O
ASSIGNED CLASS: 0 (no)

COMPOUND: COC(=O)C[C@H]1C(C)(C)[C@@H](OC(C)=O)[C@@H]2CC3C4CC(=O)O[C@@H](c5ccoc5)[C@]4(C)CCC3[C@@]1(C)C2=O (stereo not given in full)
ASSIGNED CLASS: 0 (no)

COMPOUND: CCC(=O)O[C@H]1CCC2C3CCc4cc(O)ccc4C3CC[C@@]21C (stereo not given in full)
ASSIGNED CLASS: 0 (no)

COMPOUND: C=C(C)c1cc2cc(C(C)=O)c(O)cc2o1
ASSIGNED CLASS: 0 (no)

COMPOUND: C[N+]1(C)C2CC[C@H]1CC(OC(=O)C(O)c1ccccc1)C2 (stereo not given in full)
ASSIGNED CLASS: 0 (no)

COMPOUND: CC1(C)C[C@@H]2C(=O)CC[C@H]3O[C@]3(C)CC[C@H]21
ASSIGNED CLASS: 0 (no)

COMPOUND: O=C1c2ccccc2C(=O)c2c1ccc(O)c2O
ASSIGNED CLASS: 1 (yes)

* * *

test: chemical genetic growth profiling, strain panel (AID 1159580); details: S. cerevisiae deletion strains, growth OD, locus YPL078C, strain atp4, active compounds read low
Screen size: about 5,500 compounds; about 2,000 (36%) were called active. Not shown: some 18% with an inconclusive outcome. The list shows a part of the results.
ASSAY ENDPOINT: normalized growth

ITEM SMILES: O=c1[nH]c2ccccc2n1C1CCN(CCCC(c2ccc(F)cc2)c2ccc(F)cc2)CC1
REPORTED RESULT: 0.956

ITEM SMILES: CN1CCN(CCCN2c3ccccc3Sc3ccc(Cl)cc32)CC1
REPORTED RESULT: 0.92

ITEM SMILES: N#Cc1ccc2c(c1)N(CCCN1CCC(O)CC1)c1ccccc1S2
REPORTED RESULT: 1

ITEM SMILES: O=c1n(CCCN2CCN(c3cccc(Cl)c3)CC2)nc2ccccn12
REPORTED RESULT: 0.975

ITEM SMILES: CN(C)c1nc(N(C)C)nc(N(C)C)n1
REPORTED RESULT: 0.975

ITEM SMILES: CC(=O)c1ccc2c(c1)N(CCCN(C)C)c1ccccc1S2
REPORTED RESULT: 1

* * *

Listed here are molecules together with their documented normalized growth.
assay: chemical genetic growth profiling, strain panel (AID 1159580);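 further: tested at 20 µM; growth read once vehicle control cultures reached saturation at 30 °C; 1 = growth at the plate median or of vehicle wells; lower values mean less growth of the strain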; conditions: S. cerevisiae deletion strains, growth OD, locus YNR052C, strain pop2, active compounds read low
The campaign covered roughly 5,500 compounds. About 2,000 (36%) were called active. Not shown: some 18% with an inconclusive outcome. Some of the results follow.
ASSAY ENDPOINT: normalized growth

MOLECULE: C[C@]12C=CC(=O)C=C1CCC1C2CC[C@]2(C)C(=O)CCC12 (some centres not stated)
REPORTED RESULT: 0.989 (inactive)
//
MOLECULE: COc1ccc2[nH]cc(CCNC(C)=O)c2c1
REPORTED RESULT: 1.03 (inactive)
//
MOLECULE: COc1cc(OC)c(-c2c(OC)cc(OC)cc2OC)c(OC)c1
REPORTED RESULT: 1.04 (inactive)
//
MOLECULE: CN(C)c1nc(N(C)C)nc(N(C)C)n1
REPORTED RESULT: 1.02 (inactive)
//
MOLECULE: CCNc1nc(Cl)nc(NC(C)C)n1
REPORTED RESULT: 1.04 (inactive)
//
MOLECULE: COc1cc(OC)cc(OC)c1
REPORTED RESULT: 1 (inactive)
//
MOLECULE: CCOc1ccc(Cc2nccc3cc(OCC)c(OCC)cc23)cc1OCC
REPORTED RESULT: 0.974 (inactive)
//
MOLECULE: COc1ccc(Cc2nccc3cc(OC)c(OC)cc23)cc1OC
REPORTED RESULT: 0.986 (inactive)
//
MOLECULE: CC1=C(C(=O)O)N2C(=O)[C@@H](NC(=O)[C@H](N)C3=CCC=CC3)C2SC1 (some centres not stated)
REPORTED RESULT: 0.996 (inactive)
//
MOLECULE: COc1cc(O)c(C(=O)O)c(O)c1
REPORTED RESULT: 1.02 (inactive)
//
MOLECULE: Cn1cnc([N+](=O)[O-])c1Sc1ncnc2nc[nH]c12
REPORTED RESULT: 0.99 (inactive)
//
MOLECULE: CC(C)(O)CC[C@@H](O)[C@](C)(O)C1CC[C@@]2(O)C3=CC(=O)C4C[C@@H](O)[C@@H](O)C[C@]4(C)C3CC[C@]12C (some centres not stated)
REPORTED RESULT: 0.993 (inactive)
//
MOLECULE: C[C@]12C=CC(=O)C=C1CCC1C2C(=O)C[C@@]2(C)C1CC[C@]2(O)C(=O)CO (some centres not stated)
REPORTED RESULT: 0.995 (inactive)
//
MOLECULE: C=C(C)c1cc2cc(C(C)=O)c(O)cc2o1
REPORTED RESULT: 0.97 (inactive)
//
MOLECULE: CCCCC(=O)N(Cc1ccc(-c2ccccc2-c2nn[nH]n2)cc1)[C@H](C(=O)O)C(C)C
REPORTED RESULT: 0.991 (inactive)
//
MOLECULE: CCOc1nc2cccc(C(=O)OC(C)OC(=O)OC3CCCCC3)c2n1Cc1ccc(-c2ccccc2-c2nn[nH]n2)cc1 (configuration not stated)
REPORTED RESULT: 1 (inactive)
//
MOLECULE: C[N+]1(C)C2CC[C@H]1CC(OC(=O)C(O)c1ccccc1)C2 (some centres not stated)
REPORTED RESULT: 1.02 (inactive)
//
MOLECULE: Cn1c([N+](=O)[O-])cnc1COC(N)=O
REPORTED RESULT: 0.989 (inactive)
//
MOLECULE: Cc1ncc([N+](=O)[O-])n1CCO
REPORTED RESULT: 0.989 (inactive)
//
MOLECULE: CCCc1nc(C(C)(C)O)c(C(=O)OCc2oc(=O)oc2C)n1Cc1ccc(-c2ccccc2-c2nn[nH]n2)cc1
REPORTED RESULT: 0.99 (inactive)
//
MOLECULE: COc1ccc2c(c1)[nH]c1c(C)nccc12
REPORTED RESULT: 0.961 (inactive)
//
MOLECULE: COC(=O)C[C@H]1C(C)(C)[C@@H](OC(C)=O)[C@@H]2CC3C4CC(=O)O[C@@H](c5ccoc5)[C@]4(C)CCC3[C@@]1(C)C2=O (some centres not stated)
REPORTED RESULT: 1.04 (inactive)

* * *

assay: chemical genetic growth profiling, strain panel (AID 1159580);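 further: tested at 20 µM; growth read once vehicle control cultures reached saturation at 30 °C; 1 = growth at the plate median or of vehicle wells; lower values mean less growth of the strain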; settings: S. cerevisiae deletion strains, growth OD, locus YBL061C, strain skt5, active compounds read low
Among all 5,500 compounds or so, about 2,000 (36%) were called active. Not shown: some 18% with an inconclusive outcome. The list shows a part of the results.
Please note: normalized growth exactly at 1 is -1. Only values below 1 get 1.

COMPOUND: O=C(O)c1cccc(O)c1O
ASSIGNED CLASS: -1
//
COMPOUND: CC(=O)OC1CCC2C3CCc4cc(O)ccc4C3CCC12C (stereo not given)
ASSIGNED CLASS: 1

* * *

assay: chemical genetic growth profiling, strain panel (AID 1159580);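 further: tested at 20 µM; growth read once vehicle control cultures reached saturation at 30 °C; 1 = growth at the plate median or of vehicle wells; lower values mean less growth of the strain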; conditions: S. cerevisiae deletion strains, growth OD, locus YDL005C, strain med2, active compounds read low
About 2,000 (36%) of roughly 5,500 compounds were called active. Inconclusive results (about 18%) are left out. The list shows a part of the results.
ASSAY ENDPOINT: normalized growth

ITEM SMILES: O=c1n(CCCN2CCN(c3cccc(Cl)c3)CC2)nc2ccccn12
ASSAY ENDPOINT: normalized growth
REPORTED RESULT: 0.965
--
ITEM SMILES: OCCN1CCN(CCCN2c3ccccc3Sc3ccc(Cl)cc32)CC1
ASSAY ENDPOINT: normalized growth
REPORTED RESULT: 1.01
--
ITEM SMILES: O=c1cc(-c2ccc(O)cc2)oc2cc(O[C@@H]3O[C@H](CO)[C@@H](O)[C@H](O)[C@H]3O[C@@H]3OC[C@](O)(CO)[C@H]3O)cc(O)c12
ASSAY ENDPOINT: normalized growth
REPORTED RESULT: 1
--
ITEM SMILES: CN1CCN(CCCN2c3ccccc3Sc3ccc(Cl)cc32)CC1
ASSAY ENDPOINT: normalized growth
REPORTED RESULT: 1
--
ITEM SMILES: O=C(/C=C/C(=O)Oc1ccccc1C(=O)O)Oc1ccccc1C(=O)O
ASSAY ENDPOINT: normalized growth
REPORTED RESULT: 0.976
--
ITEM SMILES: C=C(C)c1cc2cc(C(C)=O)c(O)cc2o1
ASSAY ENDPOINT: normalized growth
REPORTED RESULT: 0.991

Where do these numbers come from? They come from PubChem BioAssay AID1159580.
